Record: compiled IC50 on Tyrosine-protein kinase receptor UFO (Homo sapiens, UniProt P30530) from multiple reports.

>>> df
                                   compound                              study_target  quantity_measured  reported_value
0  CC(C)(O)COc1ccc2c(Oc3ccc(Nc4nccc5[nH]cc(-c6ccccc6)c(=O)c45)cc3F)ccnc2c1  Tyrosine-protein kinase receptor UFO (Homo sapiens, UniProt P30530)               IC50         14.9 nM
1  CC(C)(O)C(=O)N1CCC(c2cc(-c3ccc(NC(=O)c4c5n(n(-c6ccccn6)c4=O)CCCC5)cc3)c3c(N)ncnn23)CC1  Tyrosine-protein kinase receptor UFO (Homo sapiens, UniProt P30530)               IC50      5 to 50 nM
2  CC[C@H](C)Nc1ncc2c(C3CCNCC3)cc([C@H]3CC[C@H](O)CC3)n2n1  Tyrosine-protein kinase receptor UFO (Homo sapiens, UniProt P30530)               IC50        ≤ 100 nM
3  COC[C@H](C)Nc1ncc2c(-c3ccnc(N4CCC(C)(O)C4)c3)cc(C3CCC(O)CC3)n2n1 (stereo partly drawn)  Tyrosine-protein kinase receptor UFO (Homo sapiens, UniProt P30530)               IC50        ≤ 100 nM
4  CCCn1c(C)c(C(=O)Nc2ccc(Oc3ncnc4[nH]cc(-c5ccccc5)c34)c(F)c2)c(=O)c2cc(C)ccc21  Tyrosine-protein kinase receptor UFO (Homo sapiens, UniProt P30530)               IC50          533 nM
5  CCc1ccc2c(c1)c(=O)c(C(=O)Nc1ccc(Oc3ncnc4[nH]cc(-c5ccccc5)c34)c(F)c1)cn2C  Tyrosine-protein kinase receptor UFO (Homo sapiens, UniProt P30530)               IC50           56 nM
6  CCN1CCN(Cc2ccc(Nc3nc(OC)c4c(-c5ccc(O)cc5)c[nH]c4n3)cc2)CC1  Tyrosine-protein kinase receptor UFO (Homo sapiens, UniProt P30530)               IC50         < 30 nM
7  CNc1ncc2c(n1)N1CCN=C1C(c1cc(NC(=O)Nc3cc(C(F)(F)F)ccc3F)c(F)cc1C)=C2  Tyrosine-protein kinase receptor UFO (Homo sapiens, UniProt P30530)               IC50      > 10000 nM
8  COC[C@H](C)Nc1ncc2c(O[C@H]3CC[C@H](O)CC3)ncc([C@H]3CC[C@H](O)CC3)c2n1  Tyrosine-protein kinase receptor UFO (Homo sapiens, UniProt P30530)               IC50  100 to 1000 nM
9  COC[C@H](C)Nc1ncc2c(-c3cnn(C(C)(C)c4nnc(C)s4)c3)cc([C@H]3CC[C@H](O)CC3)n2n1  Tyrosine-protein kinase receptor UFO (Homo sapiens, UniProt P30530)               IC50        ≤ 100 nM

Asked: Find the recorded IC50 belonging to Cn1cc(-c2ccc(F)cc2)c(=O)c(C(=O)Nc2ccc(Oc3ccnc(N)c3Cl)cn2)n1 and report it.
Given back: 12 nM

Asked: Item: COC[C@H](C)Nc1ncc2c([C@H]3CCCN(c4ccnc(C)n4)C3)cc([C@H]3CC[C@H](O)CC3)n2n1
Given back: 100 to 1000 nM

Asked: Item: COc1cc2nccc(Oc3ccc(NC(=O)c4nn(C(C)C)cc(-c5ccc(F)cc5)c4=O)cn3)c2cc1OC
Given back: 5 nM

Asked: Item: COc1cc2nccc(Oc3ccc(NC(=O)c4c5n(c(C)c(C6=CCCCC6)c4=O)CCOC5)cc3F)c2nc1OC
Given back: ≤ 100 nM

Asked: Item: COCCOc1nc(Nc2ccc(CN3CCN(C)CC3)cc2)nc2[nH]cc(-c3ccc(S(=O)(=O)N(C)C)cc3)c12
Given back: < 30 nM
